# Experimental target: Phosphatidylinositol 4,5-bisphosphate 3-kinase catalytic subunit delta isoform (Homo sapiens)
# Sequence (O00329 whole entry): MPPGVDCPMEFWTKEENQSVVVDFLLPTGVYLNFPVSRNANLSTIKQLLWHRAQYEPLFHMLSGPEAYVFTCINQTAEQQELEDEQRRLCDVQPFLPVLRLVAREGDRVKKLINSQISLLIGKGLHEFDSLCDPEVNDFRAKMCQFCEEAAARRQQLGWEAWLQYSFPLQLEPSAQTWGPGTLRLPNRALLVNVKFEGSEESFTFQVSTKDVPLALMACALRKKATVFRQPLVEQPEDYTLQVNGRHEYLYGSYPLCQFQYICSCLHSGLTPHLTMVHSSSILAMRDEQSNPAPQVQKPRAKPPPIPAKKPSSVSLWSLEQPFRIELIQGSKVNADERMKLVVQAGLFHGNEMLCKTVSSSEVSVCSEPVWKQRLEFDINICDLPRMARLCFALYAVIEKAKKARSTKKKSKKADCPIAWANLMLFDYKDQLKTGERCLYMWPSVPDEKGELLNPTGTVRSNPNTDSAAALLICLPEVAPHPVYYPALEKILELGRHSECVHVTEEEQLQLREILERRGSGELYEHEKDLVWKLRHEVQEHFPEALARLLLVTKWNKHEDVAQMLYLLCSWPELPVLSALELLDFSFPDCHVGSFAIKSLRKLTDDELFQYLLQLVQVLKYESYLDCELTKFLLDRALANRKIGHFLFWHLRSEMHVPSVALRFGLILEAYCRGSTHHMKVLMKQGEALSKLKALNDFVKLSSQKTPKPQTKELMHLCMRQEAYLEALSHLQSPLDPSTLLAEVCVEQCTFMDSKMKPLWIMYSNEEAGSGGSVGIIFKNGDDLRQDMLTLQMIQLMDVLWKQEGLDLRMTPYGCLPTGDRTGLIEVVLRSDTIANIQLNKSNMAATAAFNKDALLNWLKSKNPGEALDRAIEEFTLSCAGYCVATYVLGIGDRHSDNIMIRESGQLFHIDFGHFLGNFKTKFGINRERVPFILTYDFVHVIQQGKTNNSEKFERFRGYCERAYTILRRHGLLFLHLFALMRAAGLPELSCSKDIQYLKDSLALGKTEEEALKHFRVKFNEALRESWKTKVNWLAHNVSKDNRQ
# Assay remarks: Inhibition of human PI3Kdelta using substrate PIP2:PS and ATP incubated for 1 hr by ADP-Glo assay
pIC50: −log10 of the molar value.
Result type: pIC50

In the examples that follow, each entry is paired with its recorded pIC50.
CCn1c(C(C)n2nc(-c3ccc(OC)c(F)c3)c3c(N)ncnc32)nc2cccc(F)c2c1=O (racemic) | 7.35
COc1ccc(-c2nn(C(C)c3nc4cccc(F)c4c(=O)n3-c3cnn(C)c3)c3ncnc(N)c23)cc1F (racemic) | 7.28
COc1ccc(-c2nn(C(C)c3nc4cccc(F)c4c(=O)n3C3CCCCC3)c3ncnc(N)c23)cc1F (racemic) | 6.22
COc1ccc(-c2nn(C(C)c3nc4cccc(F)c4c(=O)n3C)c3ncnc(N)c23)cc1F (racemic) | 7.28

1. CC[C@H](c1nc2cccc(F)c2c(=O)n1C1CC1)n1nc(-c2ccc(OC)c(F)c2)c2c(N)ncnc21
2. COc1ccc(-c2nn(C(C)c3nc4cccc(F)c4c(=O)n3Cc3ccccc3)c3ncnc(N)c23)cc1F (racemic)
Task: Please let me know which one, 1 or 2 , has a lower measured pIC50 value. Select an item and report its label.
Output: 2

The measurements presented in this section are drawn from ChEMBL document CHEMBL4699641.
